Biological target: T1, HNRNPH1 full-length (UniProt P31943 1-449)
T1 sequence: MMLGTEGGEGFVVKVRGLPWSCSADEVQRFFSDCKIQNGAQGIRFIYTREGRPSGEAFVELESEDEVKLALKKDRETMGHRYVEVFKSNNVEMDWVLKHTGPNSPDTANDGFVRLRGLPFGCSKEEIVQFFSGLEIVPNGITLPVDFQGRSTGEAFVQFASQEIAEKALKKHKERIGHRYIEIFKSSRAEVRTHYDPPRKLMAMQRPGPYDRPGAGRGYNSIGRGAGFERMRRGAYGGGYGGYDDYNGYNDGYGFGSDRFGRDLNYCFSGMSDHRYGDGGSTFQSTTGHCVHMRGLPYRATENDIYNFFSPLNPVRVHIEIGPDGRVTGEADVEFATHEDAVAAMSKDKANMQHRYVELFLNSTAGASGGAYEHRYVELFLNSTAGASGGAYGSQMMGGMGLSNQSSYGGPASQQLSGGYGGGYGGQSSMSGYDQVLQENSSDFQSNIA
Assay: SPR
MEASUREMENT LABEL: Kd
Your answer should be a number followed by the unit of measure.

Prompt: Given the binder ACCGGGGCAGGGGAAGAGGGGG (structured_RNA) [rG1 5'-biotin (SPR)] , what is its reported Kd?
Response: 4.8 nM

Origin of measurements: paper PMC6859848
